Values compiled from ChEMBL document CHEMBL1201862.

System: NCI/ADR-RES
test description: NCI tumour cell line growth inhibition, 48 h
Activity calls are given as the source filed them. Rule as the data show it: active = GI50 up to about 1.1 µM and inactive = higher.
observable: GI50

• COc1cc(-c2nc(SC)nc3c2CCc2ccccc2-3)cc(OC)c1OC = 36.3 µM (inactive)

**Query** Which GI50 value is on record for Clc1ccc(/N=c2\oc3ccccc3cc2-c2nc3ccccc3[nH]2)c(Cl)c1 ?
**Result** > 100 µM (inactive)

**Query** Which GI50 value is on record for C=CCC1(OC(C)=O)C2OC(=O)C1(O)OCC2O (stereo not drawn) ?
**Result** > 100 µM (inactive)

---

Tested on: EKVX
test description: NCI tumour cell line growth inhibition, 48 h
Activity calls are given as the source filed them. Rule as the data show it: active = GI50 up to about 1.1 µM and inactive = higher.
Response enum: yes (1) = active, no (0) = inactive

- CCCN(CCC)C(=O)C(=O)c1c(N)[nH]n(-c2ccccc2)c1=O: no (0)

**Query** Give the logged outcome of this assay for the following compound: C=CCn1c(-c2ccc([N+](=O)[O-])cc2)cs/c1=N\C(P(=O)(O)O)P(=O)(O)O
**Result** no (0)

**Query** Give the logged outcome of this assay for the following compound: CC/C(C)=C1\CCC(CN2CCOCC2)C1=O (stereo not given)
**Result** no (0)
